targetSystem: T1, human CD98 on the cell surface (human)
T1 chain: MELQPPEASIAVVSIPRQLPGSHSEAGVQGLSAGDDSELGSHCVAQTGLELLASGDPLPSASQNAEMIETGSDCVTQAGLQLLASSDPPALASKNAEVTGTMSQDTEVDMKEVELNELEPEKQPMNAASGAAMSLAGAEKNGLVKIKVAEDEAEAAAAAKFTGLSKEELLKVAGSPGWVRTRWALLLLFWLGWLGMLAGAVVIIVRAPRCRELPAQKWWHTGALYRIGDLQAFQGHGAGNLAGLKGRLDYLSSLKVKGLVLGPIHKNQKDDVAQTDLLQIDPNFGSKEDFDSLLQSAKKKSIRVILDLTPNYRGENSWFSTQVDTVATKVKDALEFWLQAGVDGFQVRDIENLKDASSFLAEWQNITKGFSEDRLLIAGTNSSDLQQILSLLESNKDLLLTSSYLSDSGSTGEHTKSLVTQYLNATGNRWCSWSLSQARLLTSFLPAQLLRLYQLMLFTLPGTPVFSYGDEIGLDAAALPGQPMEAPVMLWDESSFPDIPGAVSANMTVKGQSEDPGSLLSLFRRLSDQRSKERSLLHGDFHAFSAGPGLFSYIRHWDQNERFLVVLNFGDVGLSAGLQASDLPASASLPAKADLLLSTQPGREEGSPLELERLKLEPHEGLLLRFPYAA
experimentalDetails: cell-based or functional assay
measuredAttribute: ADC potency, IC50 (nM), MOLT4 (leukemia) growth inhibition
Report the figure in nM without appending any unit label.

Prompt: For the binder ChAb11-CZ (other, synthon CZ on reduced interchain Cys of the constant regions (sites not numbered)) VH: EVQLVESGGGLVQPGRSLKLSCAASGFTFSDYAMAWVRQAPKKGLEWVAGIIYDGRGTYYRDSVKGRFTISRDNAKSTLYLQMDSLRSEDTATYYCARQGDGTYYYWGYFDYWGQGVMVTVSS VL: DIVMTQSPSSLAVSAGETVTINCRSSQSLLSSGNQKNYLAWYQQKPGQSPKLLIYWASTRQSGVPDRFIGSGSGTDFTLTISSVQAEDLAIYYCQQYYDTPYTFGAGTKLELK , report ADC potency, IC50 (nM), MOLT4 (leukemia) growth inhibition.
Response: 0.199
